studyTarget: T1, PARP4 BRCT-WGR-CAT K23/24Q (human, UniProt Q9UKK3 1-573, K23Q;K24Q)
T1 sequence: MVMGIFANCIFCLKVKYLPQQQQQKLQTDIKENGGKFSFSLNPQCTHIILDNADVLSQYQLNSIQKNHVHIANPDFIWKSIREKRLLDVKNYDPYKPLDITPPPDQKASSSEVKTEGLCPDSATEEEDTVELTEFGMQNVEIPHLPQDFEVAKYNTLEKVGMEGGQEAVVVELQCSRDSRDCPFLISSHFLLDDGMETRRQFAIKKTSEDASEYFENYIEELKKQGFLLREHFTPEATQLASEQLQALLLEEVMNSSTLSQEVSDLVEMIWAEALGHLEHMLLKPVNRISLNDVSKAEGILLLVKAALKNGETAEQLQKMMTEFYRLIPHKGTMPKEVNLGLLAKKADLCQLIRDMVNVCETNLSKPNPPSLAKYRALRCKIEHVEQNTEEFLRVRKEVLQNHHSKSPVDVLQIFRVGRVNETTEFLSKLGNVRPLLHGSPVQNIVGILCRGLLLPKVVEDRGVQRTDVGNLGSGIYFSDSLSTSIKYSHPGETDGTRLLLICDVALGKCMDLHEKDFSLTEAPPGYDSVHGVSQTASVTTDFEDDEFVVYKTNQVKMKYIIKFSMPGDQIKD
assayProcedure: FP; 3 nM probe; FP: 50 mM Tris pH 7.5, 50 mM NaCl, 1 mM MgCl2, 0.05% NP40, 2 mM DTT, 5% glycerol, 25 ug/ml BSA, room temp 30 min; EMSA: 50 mM Tris pH 7.5, 50 mM NaCl, 4% Ficoll PM400, 0.05% NP40, 2 mM DTT, 0-18 uM protein, room temp 30 min, gel at 4 C
experimentalContext: protein: recombinant; tags: N-terminal His-SUMO removed by TEV; label: 5'-6-FAM; predicted intramolecular fold
measuredParameter: Kd (µM)
Report the figure in µM without appending any unit label.

Entry vtRNA1-3 (structured_RNA) RNA: GGCUGGCUUUAGCUCAGCGGUUACUUCGCGUGUCAUCAAACCACCUCUCUGGGUUGUUCGAGACCCGCGGGCGCUCUCCAGCCCUCUU needs its Kd filled in; supply it.
71
